Source of measurements: paper PMC5524215

test.details: Single ascending dose pharmacokinetics of intravenous CN-105 in healthy adults
run.conditions: human, plasma, iv, 0.01 mg/kg
Where a SMILES comes first, the peptide text is derived from it.
experimental.endpoint: clearance (mL/min)
Numbers only here, please. The scale is mL/min.

The compound listed as CC(=O)N[C@H](C(=O)N[C@@H](CO)C(=O)N[C@@H](CCCNC(=N)N)C(=O)N[C@@H](CCCNC(=N)N)C(=O)N[C@@H](CCCNC(=N)N)C(N)=O)C(C)C [CN-105] (Ac-VSRRR-NH2; N-terminus and C-terminus assumed) shows clearance equal to 150
